- targetOrTestSystem: recombinant human LTA4 hydrolase (Homo sapiens)
- Construct: A human LTA4 hydrolase full-length cDNA clone (NM_000895) was purchased from OriGene Technologies
- Sequence (P09960 whole entry): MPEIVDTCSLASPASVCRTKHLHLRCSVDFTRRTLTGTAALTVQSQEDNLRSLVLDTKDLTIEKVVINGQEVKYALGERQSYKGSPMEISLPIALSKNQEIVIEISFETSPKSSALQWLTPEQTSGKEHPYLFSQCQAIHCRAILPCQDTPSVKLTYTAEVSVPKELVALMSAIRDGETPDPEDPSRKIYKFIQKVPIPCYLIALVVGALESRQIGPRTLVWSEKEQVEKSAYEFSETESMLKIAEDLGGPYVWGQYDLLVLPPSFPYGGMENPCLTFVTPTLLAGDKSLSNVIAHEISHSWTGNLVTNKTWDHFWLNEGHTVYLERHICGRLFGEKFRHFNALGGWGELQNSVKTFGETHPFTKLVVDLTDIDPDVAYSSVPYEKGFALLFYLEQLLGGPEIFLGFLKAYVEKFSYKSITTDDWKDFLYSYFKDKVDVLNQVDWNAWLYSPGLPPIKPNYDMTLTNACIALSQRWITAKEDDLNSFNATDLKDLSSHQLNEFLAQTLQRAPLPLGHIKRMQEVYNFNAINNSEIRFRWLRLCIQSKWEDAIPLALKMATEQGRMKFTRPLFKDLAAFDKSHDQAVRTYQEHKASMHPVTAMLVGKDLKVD
- assayMethodText: In vitro assay testing inhibitory activity against purified recombinant human LTA4 hydrolase (LTB4 formed measured by LC-MS/MS)
- conditionNotes: purified recombinant human LTA4 hydrolase 200 nM, LTA4 2 μM, 120 sec at room temperature; read-out: AvgIC50
pIC50: −log10 of the molar value. Counter-ions that a name gives are not always drawn.
Below is a list of entries, each paired with its recorded pIC50 value.

Past entries and their recorded results:
- compound: "O=C(O)CN1CCC[C@H]1COc1ccc(Cc2ccccc2)cc1 [Example 35, TFA salt]"
  pIC50: "4.70 to 5.30"
- compound: "Cc1ccc(Oc2ccc(OC[C@@H]3CCCN3CCCC(=O)O)cc2)cc1 [Example 37, HCl]"
  pIC50: "> 5.30"

Now examine the next entry.
For the record `c1csc(-c2ccc(Cc3ccc(OC[C@@H]4CCCN4)cc3)cc2)c1` , what value of pIC50 is listed for recombinant human LTA4 hydrolase (Homo sapiens)? > 5.30
